Reference source: patent US20220380459A1

- MEASURED ON: T1, deglycosylated V domain of human CD33 (human, UniProt P20138 18-139, limits assumed, N-glycans removed by PNGase)
- T1 construct: V domain deglycosylated by PNGase before testing; also called deglycosylated V CD33
- EXPERIMENT SUMMARY: SPR, Fab captured, 37C;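 further: biacore 8K surface plasmon resonance with Fabs held on an amine-coupled anti-Fab antibody surface, soluble monomeric CD33 domain injected as analyte, double-referenced 1:1 binding fit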
PROPERTY NAME: pKd
pKd (log units): -log10 of the concentration in mol/L.

ADI-11807 Fab (Fab, V domains shown, Fab fragment; also called Ab5; I07) VH: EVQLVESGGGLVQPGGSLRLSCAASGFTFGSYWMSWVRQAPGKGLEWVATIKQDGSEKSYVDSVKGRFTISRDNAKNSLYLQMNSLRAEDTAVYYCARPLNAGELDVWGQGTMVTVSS VL: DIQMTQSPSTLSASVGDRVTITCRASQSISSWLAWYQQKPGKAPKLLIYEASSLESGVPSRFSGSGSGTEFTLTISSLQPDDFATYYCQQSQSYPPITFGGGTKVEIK : 9.72

// switching to the query binder
Problem: If you can, please state the reported pKd value of ADI-10159 Fab (Fab, V domains shown, Fab fragment; also called Ab1; G59) VH: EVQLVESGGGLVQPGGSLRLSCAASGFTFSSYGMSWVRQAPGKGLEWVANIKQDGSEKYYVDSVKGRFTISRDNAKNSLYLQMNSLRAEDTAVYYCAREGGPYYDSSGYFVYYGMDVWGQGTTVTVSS VL: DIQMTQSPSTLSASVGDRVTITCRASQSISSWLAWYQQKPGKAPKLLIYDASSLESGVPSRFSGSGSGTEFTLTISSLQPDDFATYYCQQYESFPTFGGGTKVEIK .
Solution: 7.91
